- System: NCI-H460 lung
- assay method text: NCI tumour cell line growth inhibition, 48 h
outcome measure: TGI

molecule: Oc1ccc(C(O)C2CCCCN2)cc1O (stereo not drawn)
TGI: > 100 µM

Consider the record given below.
Q: What value of TGI has been recorded for this entry: "C1=CC(=P(c2ccccc2)(c2ccccc2)c2ccccc2)C=C1"
Ans: 26 µM

----------
- System: BT-549 breast
- assay method text: NCI tumour cell line growth inhibition, 48 h
outcome measure: TGI

Q: What value of TGI has been recorded for this entry: "CCc1nc(N)c2nc(-c3cccs3)oc2n1"
Ans: > 100 µM

Q: What value of TGI has been recorded for this entry: "CN(C)CCC(=O)Nc1ccc(-n2cc(-c3cccc(NC(=S)Nc4cccc(-c5cn(-c6ccc(NC(=O)CCN(C)C)cc6)nn5)c4)c3)nn2)cc1"
Ans: 66.4 µM

Q: What value of TGI has been recorded for this entry: COC1CC(C)(NC(=O)C(F)(F)F)C2OC(c3ccccc3)OCC2O1 (stereo not drawn)
Ans: > 100 µM

FYI, the data here is from PubChem BioAssay (NCI).
